The reported numbers originate from patent US20230227466A1.

TARGET UNDER TEST: Rho-A (Homo sapiens, UniProt P61586)
ASSAY DETAILS: Ras GTP binding domain inhibition assay (labeled-GTP competition, cell-free)
Design: made in house
STATED CONDITIONS: without SOS, read-out: Rho-A: % inh.

>  <COMPOUND>
CO[C@H]1CC[C@@H](Nc2nc(-c3ccccn3)nc3sc(-c4ccn(C(C)C)n4)c(C)c23)C1 (racemic)

>  <inhibition at 20 µM>
51 to 75%

$$$$
>  <COMPOUND>
COc1cccn2c(-c3nc(O)c4scc(-c5ccccn5)c4n3)ncc12

>  <inhibition at 20 µM>
51 to 75%

$$$$
>  <COMPOUND>
CC(C)OCCn1ccnc1-c1nc(O)c2scc(-c3ccccn3)c2n1

>  <inhibition at 20 µM>
51 to 75%

$$$$
>  <COMPOUND>
Cc1sc2c(O)nc(-c3ccccn3)nc2c1-c1ccccn1

>  <inhibition at 20 µM>
76 to 100%

$$$$
>  <COMPOUND>
CO[C@H]1CN(c2nc(-c3nccn3C)nc3sc(-c4ccn(C(C)C)n4)c(C)c23)C[C@H]1OC

>  <inhibition at 20 µM>
76 to 100%

$$$$
>  <COMPOUND>
COCCn1ccnc1-c1nc(O)c2scc(-c3ccncc3)c2n1

>  <inhibition at 20 µM>
76 to 100%

$$$$
>  <COMPOUND>
COCC1CCN(c2nc(-c3nccn3C)nc3sc(-c4ccn(C(C)C)n4)c(C(F)(F)F)c23)C1 (racemic)

>  <inhibition at 20 µM>
51 to 75%

$$$$
>  <COMPOUND>
CO[C@H]1C[C@@H](Nc2nc(-c3nccn3C)nc3sc(-c4cn(C)cn4)c(-c4ccccc4)c23)C1

>  <inhibition at 20 µM>
76 to 100%

$$$$

====

TARGET UNDER TEST: KRas Q61H mutant (Homo sapiens, UniProt P01116, Q61H)
ASSAY DETAILS: Ras GTP binding domain inhibition assay (labeled-GTP competition, cell-free)
STATED CONDITIONS: with SOS
Recorded IC50 for the following molecules

>  <MOLECULE>
CO[C@H]1CC[C@@H](Nc2nc(C(N)=O)nc3sc(-c4ccn(C(C)C)n4)cc23)C1 (racemic)

>  <IC50>
> 10 µM

$$$$
>  <MOLECULE>
CO[C@H]1CC[C@@H](Nc2nc(-c3nccn3C)nc3sc(-c4ccn(C(C)C)n4)c(-c4ccccc4)c23)C1

>  <IC50>
1 to 4.99 µM

$$$$
>  <MOLECULE>
CO[C@H]1C[C@@H](Nc2nc(-c3nccn3C)nc3sc(-c4ccn(C(C)C)n4)c(C)c23)C1

>  <IC50>
> 10 µM

$$$$
>  <MOLECULE>
O=C(c1nc(O)c2scc(-c3ccccn3)c2n1)N1CCCC1

>  <IC50>
> 10 µM

$$$$
>  <MOLECULE>
O=C(Nc1ccccn1)c1nc(O)c2scc(-c3ccccn3)c2n1

>  <IC50>
> 10 µM

$$$$
>  <MOLECULE>
COCCNC(=O)c1nc(N[C@@H]2CC[C@H](OC)C2)c2ccsc2n1 (racemic)

>  <IC50>
> 10 µM

$$$$

====

TARGET UNDER TEST: Rho-A (Homo sapiens)
ASSAY DETAILS: Ras GTP binding domain inhibition assay (labeled-GTP competition, cell-free)
Parameters: made in house
STATED CONDITIONS: without SOS, read-out: Rho-A: % inh.

>  <COMPOUND>
COCCCNc1nc(-c2nccn2C)nc2sc(-c3ccn(C(C)C)n3)c(C)c12

>  <inhibition at 20 µM>
26 to 50%

$$$$
>  <COMPOUND>
CO[C@H]1CC[C@@H](Nc2nc(-c3nccn3C)nc3sccc23)C1 (racemic)

>  <inhibition at 20 µM>
76 to 100%

$$$$
>  <COMPOUND>
CO[C@@H]1CC[C@H]1CNc1nc(-c2nccn2C)nc2sc(-c3ccn(C(C)C)n3)c(C)c12 (racemic)

>  <inhibition at 20 µM>
51 to 75%

$$$$
>  <COMPOUND>
Oc1nc(-c2cccnc2)nc2c(-c3ccccn3)csc12

>  <inhibition at 20 µM>
1 to 25%

$$$$
>  <COMPOUND>
CO[C@H]1C[C@@H](CNc2nc(-c3nccn3C)nc3sc(-c4ccn(C(C)C)n4)c(C)c23)C1

>  <inhibition at 20 µM>
76 to 100%

$$$$
>  <COMPOUND>
COCCn1c(-c2nc(O)c3scc(-c4ccccn4)c3n2)nc2ccccc21

>  <inhibition at 20 µM>
51 to 75%

$$$$
>  <COMPOUND>
CO[C@@H]1CC[C@@H](Nc2nc(-c3nccn3C)nc3sc(-c4ccn(C(C)C)n4)c(C)c23)C1 (racemic)

>  <inhibition at 20 µM>
76 to 100%

$$$$
>  <COMPOUND>
Cc1c(-c2ccn(C(C)C)n2)sc2nc(-c3nccn3C)nc(NCCC3CCC(=O)N3)c12 (racemic)

>  <inhibition at 20 µM>
76 to 100%

$$$$
